Assay target: Protein kinase C beta type (Homo sapiens)
Sequence (P05771 whole entry): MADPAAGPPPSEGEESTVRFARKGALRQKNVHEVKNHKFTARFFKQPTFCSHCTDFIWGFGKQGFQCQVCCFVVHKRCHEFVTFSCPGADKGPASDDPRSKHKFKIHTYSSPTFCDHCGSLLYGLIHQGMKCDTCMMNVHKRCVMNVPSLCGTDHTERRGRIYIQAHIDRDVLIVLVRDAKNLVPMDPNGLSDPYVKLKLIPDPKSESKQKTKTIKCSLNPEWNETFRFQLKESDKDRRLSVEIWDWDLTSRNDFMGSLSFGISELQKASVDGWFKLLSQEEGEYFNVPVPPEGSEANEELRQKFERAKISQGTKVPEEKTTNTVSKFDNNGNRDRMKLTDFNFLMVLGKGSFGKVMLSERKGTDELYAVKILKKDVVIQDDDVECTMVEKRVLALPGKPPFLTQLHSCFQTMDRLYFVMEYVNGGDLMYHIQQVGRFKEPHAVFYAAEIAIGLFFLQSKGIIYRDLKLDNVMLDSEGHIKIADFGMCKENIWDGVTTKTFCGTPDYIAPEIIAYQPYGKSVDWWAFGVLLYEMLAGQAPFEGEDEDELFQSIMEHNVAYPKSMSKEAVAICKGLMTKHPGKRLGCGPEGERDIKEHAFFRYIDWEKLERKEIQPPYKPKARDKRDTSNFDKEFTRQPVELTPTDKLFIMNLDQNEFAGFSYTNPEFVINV
Test method notes: Evaluated against recombinant human Protein kinase C beta 1
Measurement name: IC50 (nM)

[
  {
    "Molecule": "COC(=O)c1cccc(O)c1C(=O)c1c(O)cc(C(=O)OC2CCCC2Cc2ccc(O)cc2)cc1O (centres undefined)",
    "Measurement name": "IC50",
    "Units label": "nM",
    "Readout number": 100
  }
]

P = O=C(OC1CCCC1Cc1ccc(O)cc1)c1cc(O)c(C(=O)c2c(O)cccc2C(=O)O)c(O)c1 (stereo in doubt; 20b)
Q = O=C(OC[C@H](Cc1ccc(O)cc1)NS(=O)(=O)c1ccccc1)c1cc(O)c(C(=O)c2c(O)cccc2C(=O)O)c(O)c1
R = COC(=O)c1cccc(O)c1C(=O)c1c(O)cc(C(=O)OCCCc2ccc(O)cc2)cc1O
Prompt: Please order the records by their reported IC50, lowest number first. Would you mind listing the labels in the order requested?
Response: P, Q, R
(P: 20 nM, Q: 230 nM, R: 460 nM)

* * *

Assay target: Protein kinase C eta type (Homo sapiens, UniProt P24723)
Sequence (P24723 whole entry): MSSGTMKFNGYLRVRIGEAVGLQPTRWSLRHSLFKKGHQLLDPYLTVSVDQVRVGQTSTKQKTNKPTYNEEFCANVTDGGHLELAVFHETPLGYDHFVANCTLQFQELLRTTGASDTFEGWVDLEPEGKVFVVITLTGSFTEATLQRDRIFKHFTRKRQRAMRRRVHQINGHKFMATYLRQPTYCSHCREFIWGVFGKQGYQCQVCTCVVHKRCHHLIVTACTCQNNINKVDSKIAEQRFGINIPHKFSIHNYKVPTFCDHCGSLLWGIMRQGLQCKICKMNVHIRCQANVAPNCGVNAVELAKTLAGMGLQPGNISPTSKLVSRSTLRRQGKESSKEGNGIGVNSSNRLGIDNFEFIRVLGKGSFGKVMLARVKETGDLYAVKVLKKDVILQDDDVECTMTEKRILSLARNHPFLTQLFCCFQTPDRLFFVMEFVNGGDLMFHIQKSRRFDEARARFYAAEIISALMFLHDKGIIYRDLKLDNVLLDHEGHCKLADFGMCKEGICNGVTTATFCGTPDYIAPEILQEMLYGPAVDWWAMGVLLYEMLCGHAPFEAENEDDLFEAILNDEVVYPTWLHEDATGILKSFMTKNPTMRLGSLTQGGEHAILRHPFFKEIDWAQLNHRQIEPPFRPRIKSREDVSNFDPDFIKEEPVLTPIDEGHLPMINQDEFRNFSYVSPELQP
Test method notes: Evaluated against recombinant human Protein kinase C eta
pIC50: −log10 of the molar value.
Measurement name: pIC50

[
  {
    "Molecule": "O=C(OC1CCCC1Cc1ccc(O)cc1)c1cc(O)c(C(=O)c2c(O)cccc2C(=O)O)c(O)c1 (stereo in doubt; 20b)",
    "Readout number": 8.00
  },
  {
    "Molecule": "O=C(OC[C@@H](Cc1ccc(O)cc1)NS(=O)(=O)c1ccccc1)c1cc(O)c(C(=O)c2c(O)cccc2C(=O)O)c(O)c1",
    "Readout number": 8.52
  },
  {
    "Molecule": "O=C(NCCOC(=O)c1cc(O)c(C(=O)c2c(O)cccc2C(=O)O)c(O)c1)c1ccc(O)cc1",
    "Readout number": 6.64
  },
  {
    "Molecule": "O=C(OC1CNCC1Cc1ccc(O)cc1)c1cc(O)c(C(=O)c2c(O)cccc2C(=O)O)c(O)c1 (stereo not drawn)",
    "Readout number": 7.70
  },
  {
    "Molecule": "O=C(NC1CNCCCC1OC(=O)c1cc(O)c(C(=O)c2c(O)cccc2C(=O)O)c(O)c1)c1ccc(O)cc1 (racemic)",
    "Readout number": 7.70
  },
  {
    "Molecule": "O=C(OC1CCCC1Oc1ccc(O)cc1)c1cc(O)c(C(=O)c2c(O)cccc2C(=O)O)c(O)c1 (stereo not drawn)",
    "Readout number": 8.00
  }
]

P = O=C(OC[C@H](Cc1ccc(O)cc1)NS(=O)(=O)c1ccccc1)c1cc(O)c(C(=O)c2c(O)cccc2C(=O)O)c(O)c1
Q = O=C(OCCCCc1ccc(O)cc1)c1cc(O)c(C(=O)c2c(O)cccc2C(=O)O)c(O)c1
Prompt: Thinking about recorded pIC50 values, which is higher, P or Q ? Lab note: record the label of whichever item you select.
Response: P
(P: 7.70, Q: 6.60)

* * *

Assay target: UniProt P17252
Test method notes: Evaluated against recombinant human Protein kinase C alpha
pIC50: −log10 of the molar value.
Measurement name: pIC50

Some compounds with known pIC50 results, for comparison:
[
  {
    "Compound": "O=C(NC(COC(=O)c1cc(O)c(C(=O)c2c(O)cccc2C(=O)O)c(O)c1)Cc1ccc(O)cc1)c1ccccc1 (stereo not given)",
    "pIC50": 4.35
  },
  {
    "Compound": "O=C(NC1CCCC1OC(=O)c1cc(O)c(C(=O)c2c(O)cccc2C(=O)O)c(O)c1)c1ccc(O)cc1 (stereo not given)",
    "pIC50": 7.40
  },
  {
    "Compound": "O=C(OCC(Cc1ccc(O)cc1)NS(=O)(=O)c1ccc2ccccc2c1)c1cc(O)c(C(=O)c2c(O)cccc2C(=O)O)c(O)c1 (stereo not given)",
    "pIC50": 5.49
  },
  {
    "Compound": "COC(=O)c1cccc(O)c1C(=O)c1c(O)cc(C(=O)OC2CCCC2Cc2ccc(O)cc2)cc1O (stereo not given)",
    "pIC50": 5.85
  },
  {
    "Compound": "COC(=O)c1cccc(O)c1C(=O)c1c(O)cc(C(=O)OC[C@@H](Cc2ccc(O)cc2)NS(=O)(=O)c2ccccc2)cc1O",
    "pIC50": 4.74
  }
]

a = O=C(NC1CNCCCC1OC(=O)c1cc(O)c(C(=O)c2c(O)cccc2C(=O)O)c(O)c1)c1ccc(O)cc1 (racemic)
b = Cc1ccc(S(=O)(=O)N2CCC[C@@H](OC(=O)c3cc(O)c(C(=O)c4c(O)cccc4C(=O)O)c(O)c3)[C@H](NC(=O)c3ccc(O)cc3)C2)cc1
Prompt: Thinking about recorded pIC50 values, which is higher, a or b ? Lab note: record the label of whichever item you select.
Response: a

I = O=C(OC1CCCC1Oc1ccc(O)cc1)c1cc(O)c(C(=O)c2c(O)cccc2C(=O)O)c(O)c1 (stereo not given)
II = O=C(OCC(COc1ccc(O)cc1)NS(=O)(=O)c1ccccc1)c1cc(O)c(C(=O)c2c(O)cccc2C(=O)O)c(O)c1 (stereo not given)
III = O=C(NCCOC(=O)c1cc(O)c(C(=O)c2c(O)cccc2C(=O)O)c(O)c1)c1ccc(O)cc1
IV = O=C(OCC(Cc1ccc(O)cc1)NS(=O)(=O)c1ccccc1)c1cc(O)c(C(=O)c2c(O)cccc2C(=O)O)c(O)c1 (stereo not given)
Prompt: Please order the records by their reported pIC50, lowest number first. Would you mind listing the labels in the order requested?
Response: II, III, I, IV

// provenance: ChEMBL document CHEMBL1129461
